# SUBJECT_OF_TEST: recombinant human LTA4 hydrolase (rhLTA4H) (Homo sapiens, UniProt P09960)
# Sequence (P09960 whole entry): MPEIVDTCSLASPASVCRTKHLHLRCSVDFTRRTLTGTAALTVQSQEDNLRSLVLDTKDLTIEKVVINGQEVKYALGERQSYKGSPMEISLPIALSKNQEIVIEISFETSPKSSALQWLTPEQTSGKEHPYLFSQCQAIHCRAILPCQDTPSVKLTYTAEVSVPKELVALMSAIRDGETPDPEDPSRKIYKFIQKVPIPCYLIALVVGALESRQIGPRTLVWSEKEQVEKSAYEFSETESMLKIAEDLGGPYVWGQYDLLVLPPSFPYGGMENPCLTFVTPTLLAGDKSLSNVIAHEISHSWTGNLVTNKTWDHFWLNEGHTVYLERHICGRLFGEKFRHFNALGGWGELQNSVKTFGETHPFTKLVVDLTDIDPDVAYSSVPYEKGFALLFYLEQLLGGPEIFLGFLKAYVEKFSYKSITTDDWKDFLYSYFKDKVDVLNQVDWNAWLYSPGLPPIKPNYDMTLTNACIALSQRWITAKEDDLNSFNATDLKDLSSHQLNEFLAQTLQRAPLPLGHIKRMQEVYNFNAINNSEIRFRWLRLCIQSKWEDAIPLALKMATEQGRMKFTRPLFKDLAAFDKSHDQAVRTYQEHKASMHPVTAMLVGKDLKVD
# PROCEDURE_SUMMARY: Recombinant Human LTA4 Hydrolase Assay for LTA4 Hydrolase Inhibitor Activity
# CONDITIONS: average of results obtained; LTB4 quantified by enzyme-linked immunoassay
Where a name gives a salt, the structure may show the parent alone.
REPORTED_PROPERTY: pKi
When answering, recall that pKi equals minus log10 of the concentration in mol/L, and write that number alone.

{"COMPOUND": "NC(=O)N[C@@H]1C[C@H]2CC[C@@H](C1)N2CCOc1ccc(Oc2nc3c(F)cccc3s2)cc1", "pKi": 8.30}

Please report the recorded pKi for c1ccc2sc(Oc3ccc(CN4CC5CCNC5C4)cc3)nc2c1 (stereo not shown) [Example 81, hydrochloride] .
6.79

Note, next up: `NC(=O)N[C@@H]1C[C@H]2CC[C@@H](C1)N2CCOc1ccc(Oc2nc3cccc(F)c3s2)cc1`
8.10

Please do the same for `CS(=O)(=O)N1C[C@H]2C[C@@H]1CN2Cc1ccc(Oc2nc3ccc(Cl)cc3s2)cc1` as well.
6.77

Check `CS(=O)(=O)N1[C@@H]2CC[C@H]1C[C@@H](NCCOc1ccc(Oc3nc4cc(F)ccc4s3)cc1)C2` too.
6.65

What do you get for `O=C(N1C[C@@H]2C[C@H]1CN2Cc1ccc(Oc2nc3ccccc3s2)cc1)C1(O)CC1` ?
7.89

Input `CS(=O)(=O)N1C[C@H]2C[C@@H]1CN2Cc1ccc(Oc2nc3ccc(F)cc3s2)cc1`
6.84

And for CC(=O)N1CCC2CN(Cc3ccc(Oc4nc5ccccc5s4)cc3)CC21 (stereo not shown) ?
7.44

Next up: c1ccc2sc(Oc3ccc(CN4CC5CNCC5C4)cc3)nc2c1 (stereo not shown) [Example 83, hydrochloride]
7.26

Would you kindly repeat that for `CC(C)(C)OC(=O)NCC(=O)N1C[C@@H]2C[C@H]1CN2Cc1ccc(Oc2nc3ccccc3s2)cc1` ?
8.05

---

# SUBJECT_OF_TEST: recombinant human LTA4 hydrolase (rhLTA4H) (Homo sapiens, UniProt P09960)
# Construct: made in house; host or cells: Spodoptera frugiperda (Sf-9) cells, baculovirus (pFastBac1)
# PROCEDURE_SUMMARY: Recombinant Human LTA4 Hydrolase Assay for LTA4 Hydrolase Inhibitor Activity
# Assay type: biochemical
# CONDITIONS: average of results obtained; LTB4 quantified by enzyme-linked immunoassay
# Protocol: Biological Methods: Recombinant Human LTA4 Hydrolase Assay for LTA4 Hydrolase Inhibitor Activity Compounds of the present invention were tested for LTA4 hydrolase inhibitor activity against recombinant human LTA4 hydrolase (rhLTA4H). Vectors were prepared and used to express rhLTA4H essentially as follows: LTA4 hydrolase encoding DNA was amplified by polymerase chain reaction (PCR) using a human placental cDNA library as a template. […]
Where a name gives a salt, the structure may show the parent alone.
Please respond with Met when measured Ki is strictly beneath 60 nM, and with Not met in all other cases.

Worked set:
{"COMPOUND": "CC(=O)N1[C@@H]2CC[C@H]1C[C@@H](NCCOc1ccc(Oc3nc4ccc(C)cc4s3)cc1)C2 [Example 172]", "LABEL_CLASS": "Not met"}
{"COMPOUND": "O=C(CF)N1CC2CN(Cc3ccc(Oc4nc5ccccc5s4)cc3)CC2C1 (centres unmarked) [Example 112]", "LABEL_CLASS": "Met"}
{"COMPOUND": "NC(=O)N1CC2CCN(Cc3ccc(Oc4nc5ccccc5s4)cc3)CC2C1 (single isomer, unassigned; (+)) [Example 142A]", "LABEL_CLASS": "Met"}
{"COMPOUND": "NC(=O)N[C@H]1C[C@H]2CC[C@@H](C1)N2CCOc1ccc(Oc2nc3cc(F)ccc3s2)cc1 [Example 219]", "LABEL_CLASS": "Met"}
{"COMPOUND": "CS(=O)(=O)N1C[C@H]2C[C@@H]1CN2Cc1ccc(Oc2nc3cccc(F)c3s2)cc1 [Example 189]", "LABEL_CLASS": "Not met"}
{"COMPOUND": "NC(=O)N1C[C@H]2C[C@@H]1CN2Cc1ccc(Oc2nc3cccc(Cl)c3s2)cc1 [Example 196]", "LABEL_CLASS": "Not met"}
{"COMPOUND": "Cc1ccc2nc(Oc3ccc(OCCN[C@H]4C[C@H]5CC[C@@H](C4)N5S(C)(=O)=O)cc3)sc2c1 [Example 220]", "LABEL_CLASS": "Not met"}
{"COMPOUND": "NC(=O)N1CC2CN(Cc3ccc(Oc4nc5c(F)cccc5s4)cc3F)CC2C1 (centres unmarked) [Example 161]", "LABEL_CLASS": "Met"}
{"COMPOUND": "O=C(N1C[C@H]2C[C@@H]1CN2Cc1ccc(Oc2nc3ccccc3s2)cc1)C1(O)CC1 [Example 26]", "LABEL_CLASS": "Met"}
{"COMPOUND": "CC(=O)N1C[C@H]2C[C@@H]1CN2Cc1ccc(Oc2nc3ccccc3s2)cc1 [Example 3]", "LABEL_CLASS": "Met"}

Read the next record carefully.
Hello, I'm reviewing records and need to know if Ki of c1ccc2sc(Cc3ccc(CN4C[C@@H]5C[C@H]4CN5)cc3)nc2c1 [Example 4D, dihydrochloride] is below 60 nM. Could you check?
Not met

meta.source: patent US8344008B2
